Origin of measurements: paper PMC11501026

test_method_notes: self-inhibition, in situ perfusion: [^3H]-ADMA with 100 μM unlabelled ADMA
Format: in vivo, mouse
stated_conditions: male, BALB/c, mouse, frontal cortex, other: in situ brain perfusion, with unlabelled ADMA 100 µM, Difference (ADMA minus Sucrose), frontal cortex, + 100uM un-labelled ADMA, 10 mins, Balb/c ♂, 5ml/min; mean
Where a name gives a salt, the structure may show the parent alone.
observable: Kp at 10 min, 62.5 nM
Respond using a number only.

Quick check: Kp at 10 min, 62.5 nM of CN(C)C(N)=NCCC[C@H](N)C(=O)O [ADMA, N^G,N^G-dimethylarginine dihydrochloride] ?
0.0696

====

System: [3H]-ADMA transport across the blood-brain and blood-CSF barriers
test_method_notes: self-inhibition, in situ perfusion: [^3H]-ADMA with 100 μM unlabelled ADMA
Format: in vivo, mouse
stated_conditions: male, Balb/c, mouse, CSF, other: in situ brain perfusion, with unlabelled ADMA 100 µM, Difference (ADMA minus Sucrose), CSF, + 100uM un-labelled ADMA, 10 mins, Balb/c ♂, 5ml/min; mean
Method: Self-inhibition experiments were also performed. […] Cross-competition experiments were also performed. The percentage change in the RTissue uptake values achieved in the absence or presence of an unlabelled inhibitor can be calculated by means of Eq 4. %change=RTissue−RInhibition/RTissue×100 Eq 4 We define RInhibition as the RTissue uptake in the presence of an inhibitor in the artificial plasma. […]
Where a name gives a salt, the structure may show the parent alone.
observable: Kp at 10 min, 62.5 nM

Quick check: Kp at 10 min, 62.5 nM of CN(C)C(N)=NCCC[C@H](N)C(=O)O [ADMA, N^G,N^G-dimethylarginine dihydrochloride] ?
2.01

====

test_method_notes: in situ brain/choroid plexus perfusion: CNS uptake of [^3H]-arginine, [^3H]-ADMA and [^14C]-sucrose (multiple-time and single-time uptake analysis)
stated_conditions: male, BALB/c, mouse, thalamus, [3H] ADMA and [14C] Sucrose uptake, 2.5 mins, 5ml/min; individual mouse
Structures can show the parent of a compound that is named as a salt.
observable: Kp at […]
Respond using a number only.

Quick check: Kp at […] of CN(C)C(N)=NCCC[C@H](N)C(=O)O [ADMA, N^G,N^G-dimethylarginine dihydrochloride] ?
0.0799

====

Test system: [3H]-ADMA transport across the blood-brain and blood-CSF barriers
test_method_notes: self-inhibition, in situ perfusion: [^3H]-ADMA with 100 μM unlabelled ADMA
Type: in vivo, mouse
stated_conditions: male, Balb/c, mouse, pons, other: in situ brain perfusion, with unlabelled ADMA 100 µM, [3H] ADMA + [14C] Sucrose + 100uM un-labelled ADMA, 10 mins, Balb/c ♂, 5ml/min; individual mice; read-out: uptake into pons
Structures can show the parent of a compound that is named as a salt.
observable: Kp at 10 min, 62.5 nM
Respond using a number only.

Quick check: Kp at 10 min, 62.5 nM of CN(C)C(N)=NCCC[C@H](N)C(=O)O [ADMA, N^G,N^G-dimethylarginine dihydrochloride] ?
0.102

====

test_method_notes: self-inhibition, in situ perfusion: [^3H]-ADMA with 100 μM unlabelled ADMA
Format: in vivo, mouse
stated_conditions: male, BALB/c, mouse, frontal cortex, other: in situ brain perfusion, with unlabelled ADMA 100 µM, [3H] ADMA + [14C] Sucrose + 100uM un-labelled ADMA, 10 mins, Balb/c ♂, 5ml/min; mean; read-out: uptake into frontal cortex
Counter-ions that a name gives are not always drawn.
observable: Kp at 10 min, 62.5 nM
Respond using a number only.

Quick check: Kp at 10 min, 62.5 nM of CN(C)C(N)=NCCC[C@H](N)C(=O)O [ADMA, N^G,N^G-dimethylarginine dihydrochloride] ?
0.101

====

test_method_notes: capillary depletion analysis after in situ brain perfusion
Type: in vivo, mouse
stated_conditions: male, BALB/c, mouse, whole-brain homogenate (capillary depletion), other: in situ brain perfusion with artificial plasma, homogenate: [14C] Sucrose, 30 mins, Balb/c ♂, 5ml/min; mean
observable: Kp at 30 min
Respond using a number only.

Quick check: Kp at 30 min of OC[C@H]1O[C@@](CO)(O[C@H]2O[C@H](CO)[C@@H](O)[C@H](O)[C@H]2O)[C@@H](O)[C@@H]1O [[^14C]-sucrose, reference compound] ?
0.0653

====

test_method_notes: capillary depletion analysis after in situ brain perfusion
Assay type: in vivo, mouse
stated_conditions: male, BALB/c, mouse, whole-brain homogenate (capillary depletion), other: in situ brain perfusion, Difference (ADMA minus Sucrose), homogenate, CONTROL, 10 mins, Balb/c ♂, 5ml/min; individual mouse
Where a name gives a salt, the structure may show the parent alone.
observable: Kp at 10 min, 62.5 nM
Respond using a number only.

Quick check: Kp at 10 min, 62.5 nM of CN(C)C(N)=NCCC[C@H](N)C(=O)O [ADMA, N^G,N^G-dimethylarginine dihydrochloride] ?
0.136

====

test_method_notes: self-inhibition, in situ perfusion: [^3H]-ADMA with 100 μM unlabelled ADMA
Type: in vivo, mouse
stated_conditions: male, BALB/c, mouse, pineal gland, other: in situ brain perfusion, with unlabelled ADMA 100 µM, Difference (ADMA minus Sucrose), pineal gland, + 100uM un-labelled ADMA, 10 mins, Balb/c ♂, 5ml/min; mean
Structures can show the parent of a compound that is named as a salt.
observable: Kp at 10 min, 62.5 nM
Respond using a number only.

Quick check: Kp at 10 min, 62.5 nM of CN(C)C(N)=NCCC[C@H](N)C(=O)O [ADMA, N^G,N^G-dimethylarginine dihydrochloride] ?
3.33

====

test_method_notes: in situ brain/choroid plexus perfusion: CNS uptake of [^3H]-arginine, [^3H]-ADMA and [^14C]-sucrose (multiple-time and single-time uptake analysis)
stated_conditions: male, BALB/c, mouse, hypothalamus, Difference (ADMA minus Sucrose), 20 mins, 5ml/min; mean
Where a name gives a salt, the structure may show the parent alone.
observable: Kp at 20 min, 62.5 nM
Respond using a number only.

Quick check: Kp at 20 min, 62.5 nM of CN(C)C(N)=NCCC[C@H](N)C(=O)O [ADMA, N^G,N^G-dimethylarginine dihydrochloride] ?
0.364

====

Tested on: [3H]-ADMA transport across the blood-brain and blood-CSF barriers
test_method_notes: self-inhibition, in situ perfusion: [^3H]-ADMA with 100 μM unlabelled ADMA
Assay type: in vivo, mouse
stated_conditions: male, Balb/c, mouse, thalamus, other: in situ brain perfusion, with unlabelled ADMA 100 µM, [3H] ADMA + [14C] Sucrose + 100uM un-labelled ADMA, 10 mins, Balb/c ♂, 5ml/min; mean; read-out: uptake into thalamus
Counter-ions that a name gives are not always drawn.
observable: Kp at 10 min, 62.5 nM
Respond using a number only.

Quick check: Kp at 10 min, 62.5 nM of CN(C)C(N)=NCCC[C@H](N)C(=O)O [ADMA, N^G,N^G-dimethylarginine dihydrochloride] ?
0.117

====

test_method_notes: capillary depletion analysis after in situ brain perfusion
Format: in vivo, mouse
stated_conditions: male, BALB/c, mouse, whole-brain homogenate (capillary depletion), Difference (ADMA minus Sucrose), homogenate, 2.5 mins, 5ml/min; mean
Protocol: The microvasculature within a sample of brain tissue can be separated from the brain parenchyma using capillary depletion analysis. Following perfusion, the remaining brain tissue after microdissection of the regions described above (typically 200–300 mg) underwent capillary depletion following a method modified for mouse. […]
Where a name gives a salt, the structure may show the parent alone.
observable: Kp at […]
Respond using a number only.

Quick check: Kp at […] of CN(C)C(N)=NCCC[C@H](N)C(=O)O [ADMA, N^G,N^G-dimethylarginine dihydrochloride] ?
0.0793

====

test_method_notes: in situ brain/choroid plexus perfusion: CNS uptake of [^3H]-arginine, [^3H]-ADMA and [^14C]-sucrose (multiple-time and single-time uptake analysis)
stated_conditions: male, BALB/c, mouse, thalamus, Difference (ADMA minus Sucrose), 20 mins, 5ml/min; mean
Counter-ions that a name gives are not always drawn.
observable: Kp at 20 min, 62.5 nM
Respond using a number only.

Quick check: Kp at 20 min, 62.5 nM of CN(C)C(N)=NCCC[C@H](N)C(=O)O [ADMA, N^G,N^G-dimethylarginine dihydrochloride] ?
0.282

====

test_method_notes: self-inhibition, in situ perfusion: [^3H]-ADMA with 100 μM unlabelled ADMA
Type: in vivo, mouse
stated_conditions: male, BALB/c, mouse, caudate nucleus, other: in situ brain perfusion, with unlabelled ADMA 100 µM, [3H] ADMA + [14C] Sucrose + 100uM un-labelled ADMA, 10 mins, Balb/c ♂, 5ml/min; mean; read-out: uptake into caudate nucleus
Counter-ions that a name gives are not always drawn.
observable: Kp at 10 min, 62.5 nM

Quick check: Kp at 10 min, 62.5 nM of CN(C)C(N)=NCCC[C@H](N)C(=O)O [ADMA, N^G,N^G-dimethylarginine dihydrochloride] ?
0.102

====

Test system: [3H]-ADMA transport across the blood-brain and blood-CSF barriers
test_method_notes: cross-inhibition, in situ perfusion: [^3H]-ADMA with 100 μM unlabelled L-arginine
Format: in vivo, mouse
stated_conditions: male, Balb/c, mouse, thalamus, other: in situ brain perfusion, with 100 µM unlabelled L-arginine, Difference (ADMA minus Sucrose), thalamus, + 100uM Arg, 10 mins, Balb/c ♂, 5ml/min; mean
Structures can show the parent of a compound that is named as a salt.
observable: Kp at 10 min, 62.5 nM
Respond using a number only.

Entry CN(C)C(N)=NCCC[C@H](N)C(=O)O [ADMA, N^G,N^G-dimethylarginine dihydrochloride] , system [3H]-ADMA transport across the blood-brain and blood-CSF barriers: what Kp at 10 min, 62.5 nM was measured?
0.0566
